Experiment: Toxicity against human HT-29 xenografted ip dosed CD1 mouse assessed as maximum tolerated dose
Type: organism-based
Details: in vivo, read-out: Activity
metric.name: MTD (µmol/kg)
Your answer is read as µmol/kg, so omit the unit and give the number.

Q: Name the reported MTD value associated with the molecule CN(C)CCNS(=O)(=O)c1ccc2c3c(cc([N+](=O)[O-])c2c1)N(C(=O)c1cc2cc(OCCN(C)C)ccc2[nH]1)CC3CCl (stereo unspecified)
Ans: 23.7

---

Tested on: HT-29
Assay: Cytotoxicity against human HT-29 cells under aerobic condition after 5 days by SRB assay
Type: functional, cell-based
Details: HT-29, 120 h
Readings of IC50 for the listed molecules
Reply with just the number (in nM).

Consider the following illustrative entries.
>>> obs_value("CN(C)CCOc1ccc2[nH]c(C(=O)N3CC(CCl)c4c3cc([N+](=O)[O-])c3cc(S(N)(=O)=O)ccc43)cc2c1 (configuration not stated)")
4600
>>> obs_value("CN(C)CCOc1ccc2[nH]c(C(=O)N3CC(CCl)c4c3cc([N+](=O)[O-])c3cc(S(=O)(=O)NN)ccc43)cc2c1 (configuration not stated)")
31000
>>> obs_value("COc1cc2cc(C(=O)N3CC(CCl)c4c3cc([N+](=O)[O-])c3cc(C(=O)NCCN(C)C)ccc43)[nH]c2c(OC)c1OC (configuration not stated)")
1500

Q: Kindly state the measured IC50 obtained for CNS(=O)(=O)c1ccc2c3c(cc([N+](=O)[O-])c2c1)N(C(=O)c1cc2cc(OCCN(C)C)ccc2[nH]1)CC3CCl (configuration not stated) with HT-29.
Ans: 2700

Q: Same read-out for CN(C)CCOc1ccc2[nH]c(C(=O)N3CC(CCl)c4c3cc([N+](=O)[O-])c3cc(S(=O)(=O)NO)ccc43)cc2c1 (configuration not stated) ?
Ans: 24000

Q: // repeat for CN(C)CCOc1ccc2[nH]c(C(=O)N3CC(CCl)c4c3cc([N+](=O)[O-])c3cc(S(=O)(=O)N(C)C)ccc43)cc2c1 (configuration not stated) and report
Ans: 1100

Q: Would you kindly repeat that for CNS(=O)(=O)c1ccc2c3c(cc(N)c2c1)N(C(=O)c1cc2cc(OCCN(C)C)ccc2[nH]1)CC3CCl (configuration not stated) ?
Ans: 24

---

Recorded Ratio IC50, one value per entry.
System: HT-29
Assay: Hypoxic cytotoxicity ratio IC50 for human HT-29 cells under aerobic condition to IC50 for human HT-29 cells under hypoxic condition
Format: functional
Please reply with the value in numeric form only.

Known results for compounds:
>>> obs_value("COc1cc2cc(C(=O)N3CC(CCl)c4c3cc([N+](=O)[O-])c3ccc(C(=O)NCCN(C)C)cc43)[nH]c2c(OC)c1OC (centres undefined)")
2.4
>>> obs_value("CN(C)CCOc1ccc2[nH]c(C(=O)N3CC(CCl)c4c3cc([N+](=O)[O-])c3cc(S(=O)(=O)NO)ccc43)cc2c1 (centres undefined)")
160
>>> obs_value("CNS(=O)(=O)c1ccc2c3c(cc([N+](=O)[O-])c2c1)N(C(=O)c1cc2cc(OCCN(C)C)ccc2[nH]1)CC3CCl (centres undefined)")
24

// switching to the query compound
Q: Consider the compound shown here: COc1cc2cc(C(=O)N3CC(CCl)c4c3cc([N+](=O)[O-])c3cc(C(=O)NCCN(C)C)ccc43)[nH]c2c(OC)c1OC (centres undefined) What is its recorded Ratio IC50?
Ans: 5.9
